- Species: Homo sapiens
- test_method_notes: To identify inhibition of the IFN signalling (Jak-Stat) pathway via expression of an eGFP reporter gene under the control of an IFN-stimulated response element (ISRE) containing MxA promoter.
- Type: functional
- Parameters: scale not given: direction of the effect not stated beside the values
- condition_label: 30 µM
property_label: Percent Effect (%)
Could you give me the number in %? Just the number is fine.

INSERT INTO measurements (molecule, measured_number) VALUES
  ('O=C(CCNCC(F)(F)F)N1CCC(Nc2cccnn2)CC1', 12.2),
  ('CC[C@H](C)[C@H](NC(=O)c1ccccc1-n1cnnn1)C(=O)OC', -2.35),
  ('O=S1(=O)c2ccccc2C2(CCN(Cc3ccccc3)C2)N1CC1CC1 (centres undefined)', 32.1),
  ('CN(C)C(=O)C1CN(Cc2c[nH]cn2)CCN(C2CCOCC2)C1 (centres undefined)', 15.9),
  ('O=c1n(CCSCc2ccccc2F)nc2ccccn12', 16.8),
  ('O=C(NS(=O)(=O)c1cc(Cl)sc1Cl)c1cccc2c1OCCO2', 24.9),
  ('COCC(=O)N1CCCC2(CCN(c3ccsc3)C2=O)C1 (centres undefined)', 26.1),
  ('CS(=O)(=O)NCCCN1CCCC1Cc1ccccc1 (centres undefined)', 13);

Input line: Which Percent Effect value belongs to CC(C)(NCC(=O)NCCC#N)c1ccc2c(c1)OCCO2 ?
Output line: 3.81

Input line: Which Percent Effect value belongs to O=C1C[C@H]2[C@@H](CCN2C(=O)c2ccccc2)N1CCN1CCOCC1 ?
Output line: 0.931
